# Experimental target: Human Factor B (human, UniProt P00751 26-764)
# Sequence (P00751 26-764 limits assumed): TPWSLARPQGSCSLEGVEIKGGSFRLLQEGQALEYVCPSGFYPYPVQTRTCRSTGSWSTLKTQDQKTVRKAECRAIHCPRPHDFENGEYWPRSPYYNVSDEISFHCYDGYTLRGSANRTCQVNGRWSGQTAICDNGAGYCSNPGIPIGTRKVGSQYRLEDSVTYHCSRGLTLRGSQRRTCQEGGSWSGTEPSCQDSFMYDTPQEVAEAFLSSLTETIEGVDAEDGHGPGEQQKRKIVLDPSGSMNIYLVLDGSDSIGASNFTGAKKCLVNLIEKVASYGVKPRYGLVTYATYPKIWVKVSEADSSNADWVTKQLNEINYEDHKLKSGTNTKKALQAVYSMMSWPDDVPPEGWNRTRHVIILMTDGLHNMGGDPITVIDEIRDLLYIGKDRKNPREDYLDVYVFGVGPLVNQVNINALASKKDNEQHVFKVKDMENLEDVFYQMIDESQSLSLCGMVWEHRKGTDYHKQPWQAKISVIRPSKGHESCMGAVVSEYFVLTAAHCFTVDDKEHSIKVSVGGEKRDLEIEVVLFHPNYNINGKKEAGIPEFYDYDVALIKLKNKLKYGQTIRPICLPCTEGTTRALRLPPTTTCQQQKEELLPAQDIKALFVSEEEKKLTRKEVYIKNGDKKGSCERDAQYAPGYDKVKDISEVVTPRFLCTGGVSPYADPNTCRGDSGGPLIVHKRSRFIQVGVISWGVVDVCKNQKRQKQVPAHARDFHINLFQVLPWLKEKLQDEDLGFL
# Protocol: cell-based or functional assay
Define the label as yes when fB Cleavage, 80% plasma EC50 is strictly less than 10 µM and as no in all remaining cases.

Query :: Lab note: fB Cleavage, 80% plasma EC50 threshold 10 µM. Does this binder come in strictly under it? chymase C22S/K40L/F41K/L99H/F173Y/S218L/A226R (enzyme) IIGGTESKPHSRPYMAYLEIVTSNGPSLKCGGFLIRRNFVLTAAHCAGRSITVTLGAHNITEEEDTWQKLEVIKQFRHPKYNTSTHHHDIMLLKLKEKASLTLAVGTLPFPSQFNFVPPGRMCRVAGWGRTGVLKPGSDTLQEVKLRLMDPQACSHYRDFDHNLQLCVGNPRKTKSAFKGDSGGPLLCAGVAQGIVSYGRLDAKPPRVFTRISHYRPWINQILQAN
Result :: no

Query :: Lab note: fB Cleavage, 80% plasma EC50 threshold 10 µM. Does this binder come in strictly under it? chymase C22S/K40L/F41H/L99N/F173Y/S218L/A226R (enzyme) IIGGTESKPHSRPYMAYLEIVTSNGPSLHCGGFLIRRNFVLTAAHCAGRSITVTLGAHNITEEEDTWQKLEVIKQFRHPKYNTSTNHHDIMLLKLKEKASLTLAVGTLPFPSQFNFVPPGRMCRVAGWGRTGVLKPGSDTLQEVKLRLMDPQACSHYRDFDHNLQLCVGNPRKTKSAFKGDSGGPLLCAGVAQGIVSYGRLDAKPPRVFTRISHYRPWINQILQAN
Result :: no

Query :: Lab note: fB Cleavage, 80% plasma EC50 threshold 10 µM. Does this binder come in strictly under it? chymase C22S/K40L/F41L/L99N/G151H/F173Y/S218V/A226R (enzyme) IIGGTESKPHSRPYMAYLEIVTSNGPSLLCGGFLIRRNFVLTAAHCAGRSITVTLGAHNITEEEDTWQKLEVIKQFRHPKYNTSTNHHDIMLLKLKEKASLTLAVGTLPFPSQFNFVPPGRMCRVAGWGRTGVLKPHSDTLQEVKLRLMDPQACSHYRDFDHNLQLCVGNPRKTKSAFKGDSGGPLLCAGVAQGIVSYGRVDAKPPRVFTRISHYRPWINQILQAN
Result :: no

Query :: Lab note: fB Cleavage, 80% plasma EC50 threshold 10 µM. Does this binder come in strictly under it? chymase C22S/K40L/F41K/L99N/F173Y/S218L/A226R (enzyme) IIGGTESKPHSRPYMAYLEIVTSNGPSLKCGGFLIRRNFVLTAAHCAGRSITVTLGAHNITEEEDTWQKLEVIKQFRHPKYNTSTNHHDIMLLKLKEKASLTLAVGTLPFPSQFNFVPPGRMCRVAGWGRTGVLKPGSDTLQEVKLRLMDPQACSHYRDFDHNLQLCVGNPRKTKSAFKGDSGGPLLCAGVAQGIVSYGRLDAKPPRVFTRISHYRPWINQILQAN
Result :: no

Query :: Lab note: fB Cleavage, 80% plasma EC50 threshold 10 µM. Does this binder come in strictly under it? chymase C22S/K40M/F41R/L99N/G151S/F173Y/S218L/A226R (enzyme) IIGGTESKPHSRPYMAYLEIVTSNGPSMRCGGFLIRRNFVLTAAHCAGRSITVTLGAHNITEEEDTWQKLEVIKQFRHPKYNTSTNHHDIMLLKLKEKASLTLAVGTLPFPSQFNFVPPGRMCRVAGWGRTGVLKPSSDTLQEVKLRLMDPQACSHYRDFDHNLQLCVGNPRKTKSAFKGDSGGPLLCAGVAQGIVSYGRLDAKPPRVFTRISHYRPWINQILQAN
Result :: no

Query :: Lab note: fB Cleavage, 80% plasma EC50 threshold 10 µM. Does this binder come in strictly under it? chymase C22S/F173Y/D175N/A226R (enzyme, also called MS No. 18) IIGGTESKPHSRPYMAYLEIVTSNGPSKFCGGFLIRRNFVLTAAHCAGRSITVTLGAHNITEEEDTWQKLEVIKQFRHPKYNTSTLHHDIMLLKLKEKASLTLAVGTLPFPSQFNFVPPGRMCRVAGWGRTGVLKPGSDTLQEVKLRLMDPQACSHYRNFDHNLQLCVGNPRKTKSAFKGDSGGPLLCAGVAQGIVSYGRSDAKPPRVFTRISHYRPWINQILQAN
Result :: no

Query :: Lab note: fB Cleavage, 80% plasma EC50 threshold 10 µM. Does this binder come in strictly under it? chymase C22S/K40L/F41K/L99N/F173Y/D175N/S218L/A226R (enzyme, also called MS No. 8) IIGGTESKPHSRPYMAYLEIVTSNGPSLKCGGFLIRRNFVLTAAHCAGRSITVTLGAHNITEEEDTWQKLEVIKQFRHPKYNTSTNHHDIMLLKLKEKASLTLAVGTLPFPSQFNFVPPGRMCRVAGWGRTGVLKPGSDTLQEVKLRLMDPQACSHYRNFDHNLQLCVGNPRKTKSAFKGDSGGPLLCAGVAQGIVSYGRLDAKPPRVFTRISHYRPWINQILQAN
Result :: yes

Query :: Lab note: fB Cleavage, 80% plasma EC50 threshold 10 µM. Does this binder come in strictly under it? chymase C22S/K40L/F41H/L99N/F173Y/D175N/S218L/A226R (enzyme, also called MS No. 16) IIGGTESKPHSRPYMAYLEIVTSNGPSLHCGGFLIRRNFVLTAAHCAGRSITVTLGAHNITEEEDTWQKLEVIKQFRHPKYNTSTNHHDIMLLKLKEKASLTLAVGTLPFPSQFNFVPPGRMCRVAGWGRTGVLKPGSDTLQEVKLRLMDPQACSHYRNFDHNLQLCVGNPRKTKSAFKGDSGGPLLCAGVAQGIVSYGRLDAKPPRVFTRISHYRPWINQILQAN
Result :: yes

Query :: Lab note: fB Cleavage, 80% plasma EC50 threshold 10 µM. Does this binder come in strictly under it? chymase C22S/K40L/F41K/L99H/G151S/F173Y/S218L/A226R (enzyme) IIGGTESKPHSRPYMAYLEIVTSNGPSLKCGGFLIRRNFVLTAAHCAGRSITVTLGAHNITEEEDTWQKLEVIKQFRHPKYNTSTHHHDIMLLKLKEKASLTLAVGTLPFPSQFNFVPPGRMCRVAGWGRTGVLKPSSDTLQEVKLRLMDPQACSHYRDFDHNLQLCVGNPRKTKSAFKGDSGGPLLCAGVAQGIVSYGRLDAKPPRVFTRISHYRPWINQILQAN
Result :: no

Query :: Lab note: fB Cleavage, 80% plasma EC50 threshold 10 µM. Does this binder come in strictly under it? chymase C22S/K40L/F41R/L99N/F173Y/S218L/A226R (enzyme) IIGGTESKPHSRPYMAYLEIVTSNGPSLRCGGFLIRRNFVLTAAHCAGRSITVTLGAHNITEEEDTWQKLEVIKQFRHPKYNTSTNHHDIMLLKLKEKASLTLAVGTLPFPSQFNFVPPGRMCRVAGWGRTGVLKPGSDTLQEVKLRLMDPQACSHYRDFDHNLQLCVGNPRKTKSAFKGDSGGPLLCAGVAQGIVSYGRLDAKPPRVFTRISHYRPWINQILQAN
Result :: no

Just for reference, patent US20240117334A1 is where these values come from.
